Experiment: n-Octanol/water partition co-efficient, log P of the compound by RP-TLC method
Type: physicochemical
Can you tell me logP for the items I'm about to list?

Look up logP: OC[C@H]1OC(O)[C@H](O)[C@@H](O)[C@@H]1Sc1c(F)c(F)c(-c2c3nc(c(-c4c(F)c(F)c(F)c(F)c4F)c4ccc([nH]4)c(-c4c(F)c(F)c(F)c(F)c4F)c4nc(c(-c5c(F)c(F)c(F)c(F)c5F)c5ccc2[nH]5)C=C4)C=C3)c(F)c1F (stereo not given in full)
6.3

Also OC1O[C@H](CSc2c(F)c(F)c(-c3c4nc(c(-c5c(F)c(F)c(F)c(F)c5F)c5ccc([nH]5)c(-c5c(F)c(F)c(F)c(F)c5F)c5nc(c(-c6c(F)c(F)c(F)c(F)c6F)c6ccc3[nH]6)C=C5)C=C4)c(F)c2F)[C@@H](O)[C@H](O)[C@H]1O (stereo not given in full) , if possible.
6.5

Here is the next compound: OC[C@H]1OC(Sc2c(F)c(F)c(-c3c4nc(c(-c5c(F)c(F)c(F)c(F)c5F)c5ccc([nH]5)c(-c5c(F)c(F)c(F)c(F)c5F)c5nc(c(-c6c(F)c(F)c(F)c(F)c6F)c6ccc3[nH]6)C=C5)C=C4)c(F)c2F)[C@H](O)[C@@H](O)[C@@H]1O (stereo not given in full)
6.05

Also need OC[C@H]1OC(O)[C@H](O)[C@@H](Sc2c(F)c(F)c(-c3c4nc(c(-c5c(F)c(F)c(F)c(F)c5F)c5ccc([nH]5)c(-c5c(F)c(F)c(F)c(F)c5F)c5nc(c(-c6c(F)c(F)c(F)c(F)c6F)c6ccc3[nH]6)C=C5)C=C4)c(F)c2F)[C@@H]1O (stereo not given in full) , thanks.
6.21

Same lookup for OC[C@H]1OC(O)[C@H](Sc2c(F)c(F)c(-c3c4nc(c(-c5c(F)c(F)c(F)c(F)c5F)c5ccc([nH]5)c(-c5c(F)c(F)c(F)c(F)c5F)c5nc(c(-c6c(F)c(F)c(F)c(F)c6F)c6ccc3[nH]6)C=C5)C=C4)c(F)c2F)[C@@H](O)[C@@H]1O (stereo not given in full) , please.
6.87
